Target: T1, human 4Ig-B7H3 (B7H3-4Ig-His) (human, UniProt Q5ZPR3 29-466)
T1 construct: Recombinant His-tagged protein immobilised on a CM5 chip; also called 41g-B7H3; human 4Ig-B7-H3 (dominant isoform); not shown: His tag
T1 sequence: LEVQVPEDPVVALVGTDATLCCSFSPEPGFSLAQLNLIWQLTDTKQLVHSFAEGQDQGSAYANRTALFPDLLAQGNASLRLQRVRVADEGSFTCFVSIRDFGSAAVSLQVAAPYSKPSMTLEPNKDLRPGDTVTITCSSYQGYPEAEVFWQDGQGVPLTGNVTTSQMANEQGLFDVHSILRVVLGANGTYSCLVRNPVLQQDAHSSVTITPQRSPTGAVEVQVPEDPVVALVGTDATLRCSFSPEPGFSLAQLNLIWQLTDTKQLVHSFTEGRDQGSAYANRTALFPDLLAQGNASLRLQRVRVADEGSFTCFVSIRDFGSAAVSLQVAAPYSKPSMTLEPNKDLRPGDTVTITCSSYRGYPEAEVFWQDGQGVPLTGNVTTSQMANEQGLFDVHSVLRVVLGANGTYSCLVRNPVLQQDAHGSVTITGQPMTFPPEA
Assay: SPR, Biacore T200, 4Ig-B7H3-His on CM5 chip, 1:1 fit
Below: a set of entries, each annotated with reported t ½.
A number alone suffices; assume h.

The examples below pair each entry with its known result.
{"columns": ["binder", "meas-value"],
 "data": [
  ["8H9 antibody conjugated with p-SCN-Bn-CHX-A″-DTPA, CAR 0.6 (antibody, mouse IgG1, kappa, V domains shown, p-SCN-Bn-CHX-A″-DTPA conjugated, CAR 0.6 per antibody; sites not stated, Chelator conjugate, not metal-labelled; also called conj-CHX-A″-DTPA (CAR0.6)) VH: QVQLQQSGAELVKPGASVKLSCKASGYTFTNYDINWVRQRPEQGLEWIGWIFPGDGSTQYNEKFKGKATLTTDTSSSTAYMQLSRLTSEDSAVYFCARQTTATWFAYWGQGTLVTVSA VL: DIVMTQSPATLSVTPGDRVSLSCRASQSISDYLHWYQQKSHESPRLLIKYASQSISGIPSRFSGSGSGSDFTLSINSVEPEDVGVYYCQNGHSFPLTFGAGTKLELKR", 0.883],
  ["8H9 antibody conjugated with p-SCN-Bn-DOTA, CAR 2.4 (antibody, mouse IgG1, kappa, V domains shown, p-SCN-Bn-DOTA conjugated, CAR 2.4 per antibody; sites not stated, Chelator conjugate, not metal-labelled) VH: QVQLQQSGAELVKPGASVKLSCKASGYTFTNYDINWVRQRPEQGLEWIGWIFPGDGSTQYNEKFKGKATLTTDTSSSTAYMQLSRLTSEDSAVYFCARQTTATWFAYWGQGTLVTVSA VL: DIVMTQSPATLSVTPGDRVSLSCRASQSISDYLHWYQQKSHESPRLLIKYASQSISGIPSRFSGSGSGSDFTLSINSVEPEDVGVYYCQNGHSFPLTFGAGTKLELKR", 1.4]
]}

Reported t ½ of 8H9 antibody conjugated with p-SCN-Bn-DOTA, CAR 7.5 (antibody, mouse IgG1, kappa, V domains shown, p-SCN-Bn-DOTA conjugated, CAR 7.5 per antibody; sites not stated, Chelator conjugate, not metal-labelled) VH: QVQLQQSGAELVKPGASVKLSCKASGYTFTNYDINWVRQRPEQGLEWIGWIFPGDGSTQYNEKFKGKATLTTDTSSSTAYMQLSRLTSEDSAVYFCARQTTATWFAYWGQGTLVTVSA VL: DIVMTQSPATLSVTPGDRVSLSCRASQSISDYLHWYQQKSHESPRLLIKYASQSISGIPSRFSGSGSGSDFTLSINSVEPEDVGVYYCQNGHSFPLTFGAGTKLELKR : 1.03
